// data source = patent US12178842B2

molecular target: PCSK9 (Homo sapiens); construct: biotin (biotinylated); purchased; experiment: PCSK9 Alexa FRET Plus TR-FRET assay; assay type: binding; conditions: Ki calculated from IC50 and KD of AF cyclic peptide Reagent B; 0.5 nM PCSK9, 960 nM AF cyclic peptide; read-out: Alexa FRET Plus TR-FRET
PARAMETER_MEASURED: Ki

So, COc1ccc(C[C@@H]2NC(=O)[C@H]([C@@H](C)O)NC(=O)[C@@H]3[C@@H]4CCN3C(=O)[C@@H]3Cc5cn(c6ccc(F)cc56)CCCCCCN(Cc5ccc(cc5)CCNC(=O)[C@]5(C)CCCN5C2=O)C(=O)CCC(=O)N[C@@H](C)C(=O)N[C@H](CNC(=O)COCCOCC[N+](C)(C)CCOCCNC(=O)COCCOCCNC(=O)COCCOCCNC(=O)CC[C@H](NC(=O)CC[C@H](NC(=O)CCCCCCCCCCCCCCCCC(=O)O)C(=O)O)C(=O)O)C(=O)N[C@@H](Cc2cccc(c2)CNC(=O)CO4)C(=O)N3)cc1 [Ex-13] ? Its Ki was < 6 pM

###

biological target: PCSK9 (Homo sapiens); construct: biotin (biotinylated); purchased; test: PCSK9 Alexa FRET Plus TR-FRET assay; type: binding
PARAMETER_MEASURED: Ki (pM)
Answers are plain numbers, in pM.

MOLECULE	UNIT	Ki
COc1ccc(C[C@@H]2NC(=O)[C@H]([C@@H](C)O)NC(=O)[C@@H]3[C@@H]4CCN3C(=O)[C@@H]3Cc5cn(c6ccc(F)cc56)CCCCCCN(Cc5ccc(cc5)CCNC(=O)[C@]5(C)CCCN5C2=O)C(=O)CCC(=O)N[C@@H](C)C(=O)N[C@H](CNC(=O)CCOCCOCC[N+](C)(C)CCNC(=O)CC[C@H](NC(=O)CCCCCCCCCCCCCCCCC(=O)O)C(=O)O)C(=O)N[C@@H](Cc2cccc(c2)CNC(=O)CO4)C(=O)N3)cc1 [Ex-7]	pM	8

So, COc1ccc(C[C@@H]2NC(=O)[C@H]([C@@H](C)O)NC(=O)[C@@H]3[C@@H]4CCN3C(=O)[C@@H]3Cc5cn(c6ccc(F)cc56)CCCCCCN(Cc5ccc(cc5)CCNC(=O)[C@]5(C)CCCN5C2=O)C(=O)CCC(=O)N[C@@H](C)C(=O)N[C@H](CNC(=O)CC[C@H](NC(=O)CCOCCOCC[N+](C)(C)CCNC(=O)COCCOCCNC(=O)COCCOCCNC(=O)CC[C@H](NC(=O)CCCCCCCCCCCCCCCCC(=O)O)C(=O)O)C(=O)O)C(=O)N[C@@H](Cc2cccc(c2)CNC(=O)CO4)C(=O)N3)cc1 [Ex-8] ? Its Ki was 16

###

target: PCSK9 (Homo sapiens); construct: biotin (biotinylated); purchased; assay: PCSK9 Alexa FRET Standard TR-FRET assay; format: binding; details: Ki calculated from IC50 and KD of AF cyclic peptide Reagent A; 0.5 nM PCSK9, 20 nM AF cyclic peptide; read-out: Alexa FRET Stdt TR-FRET
For each of the compounds below, state its Ki.

COMPOUND	Ki
COc1ccc(C[C@@H]2NC(=O)[C@H]([C@@H](C)O)NC(=O)[C@@H]3[C@@H]4CCN3C(=O)[C@@H]3Cc5cn(c6ccc(F)cc56)CCCCCCN(Cc5ccc(cc5)CCNC(=O)[C@]5(C)CCCN5C2=O)C(=O)CCC(=O)N[C@@H](CNC(=O)CCOCCOCC[N+](C)(C)CCNC(=O)COCCOCCNC(=O)COCCOCCNC(=O)CC[C@@H](NC(=O)CC[C@@H](NC(=O)CCCCCCCCCCCCCCCCC(=O)O)C(=O)O)C(=O)O)C(=O)N[C@H](C)C(=O)N[C@@H](Cc2cccc(c2)CNC(=O)CO4)C(=O)N3)cc1 [Ex-59]	< 1.26 nM

Query compound follows.
Log: PCSK9 (Homo sapiens), compound COc1ccc(C[C@@H]2NC(=O)[C@H]([C@@H](C)O)NC(=O)C3C4CCN3C(=O)[C@@H]3Cc5cn(c6ccc(F)cc56)CCCCCCN(Cc5ccc(cc5)CCNC(=O)[C@]5(C)CCCN5C2=O)C(=O)CCC(=O)N[C@@H](C)C(=O)N[C@H](CNC(=O)CCOCCOCC[N+](C)(C)CCNC(=O)CCOCCOCC[N+](C)(C)CCNC(=O)COCCOCCNC(=O)COCCOCCNC(=O)CCCCCCCCCCCCCCC(=O)O)C(=O)N[C@@H](Cc2cccc(c2)CNC(=O)CO4)C(=O)N3)cc1 [compound 43] , Ki = < 1.26 nM

###

target: PCSK9 (Homo sapiens, UniProt Q8NBP7); construct: biotin (biotinylated); purchased; test: PCSK9 Alexa FRET Ultra TR-FRET assay; format: binding; details: Ki Ultra, calculated from IC50 and KD of AF cyclic peptide; 0.5 nM PCSK9, 960 nM AF cyclic peptide; read-out: Alexa FRET Ultra TR-FRET
Sequence (Q8NBP7 153-692): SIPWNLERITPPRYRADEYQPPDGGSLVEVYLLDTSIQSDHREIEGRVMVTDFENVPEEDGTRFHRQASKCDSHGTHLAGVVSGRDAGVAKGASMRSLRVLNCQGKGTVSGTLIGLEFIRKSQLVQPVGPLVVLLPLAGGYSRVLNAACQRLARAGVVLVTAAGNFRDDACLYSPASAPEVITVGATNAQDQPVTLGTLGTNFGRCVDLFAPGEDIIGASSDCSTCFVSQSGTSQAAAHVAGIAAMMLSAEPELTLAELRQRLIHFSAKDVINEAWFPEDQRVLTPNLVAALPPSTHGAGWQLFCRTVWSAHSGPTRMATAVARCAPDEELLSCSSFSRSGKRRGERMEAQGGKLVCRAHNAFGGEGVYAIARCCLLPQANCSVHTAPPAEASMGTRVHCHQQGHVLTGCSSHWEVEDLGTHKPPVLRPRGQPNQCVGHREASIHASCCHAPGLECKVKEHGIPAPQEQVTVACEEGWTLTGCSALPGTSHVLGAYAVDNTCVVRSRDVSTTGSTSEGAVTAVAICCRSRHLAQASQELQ
PARAMETER_MEASURED: Ki (nM)
Answers are plain numbers, in nM.

COMPOUND	Ki / nM
COc1ccc(C[C@@H]2NC(=O)[C@H]([C@@H](C)O)NC(=O)[C@@H]3[C@@H]4CCN3C(=O)[C@@H]3Cc5cn(c6ccc(F)cc56)CCCCCCN(Cc5ccc(cc5)CCNC(=O)[C@]5(C)CCCN5C2=O)C(=O)CCC(=O)N[C@@H](CNC(=O)CCOCCOCC[N+](C)(C)CCNC(=O)COCCOCCNC(=O)COCCOCCNC(=O)CC[C@H](NC(=O)CCCCCCCCCCCCCCC(=O)O)C(=O)O)C(=O)N[C@H](C)C(=O)N[C@@H](Cc2cccc(c2)CNC(=O)CO4)C(=O)N3)cc1 [Ex-57]	0.034
COc1ccc(C[C@@H]2NC(=O)[C@H]([C@@H](C)O)NC(=O)[C@@H]3[C@@H]4CCN3C(=O)[C@@H]3Cc5cn(c6ccc(F)cc56)CCCCCCN(Cc5ccc(cc5)CCNC(=O)[C@]5(C)CCCN5C2=O)C(=O)CCC(=O)N[C@@H](CNC(=O)COCCOCC[N+](C)(C)CCOCCNC(=O)COCCOCCNC(=O)COCCOCCNC(=O)CC[C@H](NC(=O)CC[C@H](NC(=O)CCCCCCCCCCCCCCC(=O)O)C(=O)O)C(=O)O)C(=O)N[C@H](C)C(=O)N[C@@H](Cc2cccc(c2)CNC(=O)CO4)C(=O)N3)cc1 [Ex-60]	0.062
COc1ccc(C[C@@H]2NC(=O)[C@H]([C@@H](C)O)NC(=O)[C@@H]3[C@@H]4CCN3C(=O)[C@@H]3Cc5cn(c6ccc(F)cc56)CCCCCCN(Cc5ccc(cc5)CCNC(=O)[C@]5(C)CCCN5C2=O)C(=O)CCC(=O)N[C@@H](C)C(=O)N[C@H](CN(CCC[N+](C)(C)C)C(=O)COCCOCCNC(=O)COCCOCCNC(=O)CC[C@H](NC(=O)CCCCCCCCCCCCCCCCC(=O)O)C(=O)O)C(=O)N[C@@H](Cc2cccc(c2)CNC(=O)CO4)C(=O)N3)cc1 [Ex-17]	0.018
COc1ccc(C[C@@H]2NC(=O)[C@H]([C@@H](C)O)NC(=O)[C@@H]3[C@@H]4CCN3C(=O)[C@@H]3Cc5cn(c6ccc(F)cc56)CCCCCCN(Cc5ccc(cc5)CCNC(=O)[C@]5(C)CCCN5C2=O)C(=O)CCC(=O)N[C@@H](C)C(=O)N[C@H](CNC(=O)COCCOCC[N+](C)(C)CCOCCNC(=O)COCCOCCNC(=O)COCCOCCNC(=O)CC[C@H](NC(=O)CCCCCCCCCCCCCCCCC(=O)O)C(=O)O)C(=O)N[C@@H](Cc2cccc(c2)CNC(=O)CO4)C(=O)N3)cc1 [Ex-31]	0.006

Query compound follows.
So, CCCCCCC(=O)NCCCCCCCC(=O)NCC[N+](C)(C)CCOCCOCCC(=O)NC[C@H]1NC(=O)[C@H](C)NC(=O)CCC(=O)N2CCCCCCn3cc(c4cc(F)ccc43)C[C@@H]3NC(=O)[C@H](Cc4cccc(c4)CNC(=O)CO[C@H]4CCN(C3=O)[C@@H]4C(=O)N[C@@H]([C@@H](C)O)C(=O)N[C@@H](Cc3ccc(OC)cc3)C(=O)N3CCC[C@@]3(C)C(=O)NCCc3ccc(cc3)C2)NC1=O [Ex-20] ? Its Ki was 0.001

###

Target: PCSK9 (Homo sapiens, UniProt Q8NBP7)
Construct: biotin (biotinylated); purchased
Experiment: PCSK9 Alexa FRET Standard TR-FRET assay
Type: binding
Conditions: Ki calculated from IC50 and KD of AF cyclic peptide Reagent A; 0.5 nM PCSK9, 20 nM AF cyclic peptide; read-out: Alexa FRET Stdt TR-FRET
Experimental: A solution containing 1 nM biotinylated PCSK9+2.5 nM Lance Streptavidin Europium (Strep-Eu) is made in 50 mM HEPES pH 7.4, 0.15 M NaCl, 5 mM CaCl2, 0.01% BSA, and 0.01% Surfactant P20. […] The reaction is incubated at room temperature for at least two hours prior to fluorescence measurements using an Envision Multilabel Reader. IC50 values are determined by fitting data to a sigmoidal dose-response curve using nonlinear regression. Ki is then calculated from the Ic50 and the KD of AF cyclic peptide. […]
PARAMETER_MEASURED: Ki

Log: PCSK9 (Homo sapiens, UniProt Q8NBP7), compound COc1ccc(C[C@@H]2NC(=O)[C@H]([C@@H](C)O)NC(=O)[C@@H]3[C@@H]4CCN3C(=O)[C@@H]3Cc5cn(c6ccc(F)cc56)CCCCCCN(Cc5ccc(cc5)CCNC(=O)[C@]5(C)CCCN5C2=O)C(=O)CCC(=O)N[C@@H](C)C(=O)N[C@H](CNC(=O)CCOCCOCC[N+](C)(C)CCNC(=O)CC[C@H](NC(=O)COCCOCCNC(=O)CC[C@H](NC(=O)CCCCCCCCCCCCCCCCC(=O)O)C(=O)O)C(=O)O)C(=O)N[C@@H](Cc2cccc(c2)CNC(=O)CO4)C(=O)N3)cc1 , Ki = < 1.26 nM
